Recorded values, source ChEMBL document CHEMBL1201861.

Exercise: for every item that follows, state its recorded pIC50.
# Tested on: RS4-11;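 note: growth inhibition of RS4-11 cells, read out by a cell viability assay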
# ASSAY_METHOD_TEXT: cells
# Type: functional, cell-based, Homo sapiens
# CONDITION_PARAMETERS: Homo sapiens, RS4-11
# Description: SANGER: Inhibition of human RS4-11 cell growth in a cell viability assay.
Where a name gives a salt, the structure may show the parent alone.
Give bare numbers, as −log10 of the molar value.

Record CCN(CC)CCCCNc1ncc2cc(-c3cc(OC)cc(OC)c3)c(NC(=O)NC(C)(C)C)nc2n1 , field pIC50: 5.87

get_value(item= COC1=CC(c2cc3ccccc3[nH]2)=N/C1=C\c1[nH]c(C)cc1C [OBATOCLAX MESYLATE] , readout=pIC50) returns 7.07

---
Record COc1cccc2c1C(=O)c1c(O)c3c(c(O)c1C2=O)C[C@@](O)(C(=O)CO)C[C@@H]3O[C@H]1C[C@H](N)[C@H](O)[C@H](C)O1 , field pIC50: 7.72

----------
# System: ESS-1
# ASSAY_METHOD_TEXT: cells
# Assay type: functional, cell-based, Homo sapiens
# CONDITION_PARAMETERS: ess-1
# Description: SANGER: Inhibition of human ESS-1 cell growth in a cell viability assay.
MEASUREMENT_TYPE: pIC50
Numbers only, as −log10 of the molar value.

Form field pIC50, entry BLEOMYCIN : 6.73

----------
# Test system: NB17;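 note: growth inhibition of NB17 cells, read out with a cell viability assay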
# ASSAY_METHOD_TEXT: cells
# Format: functional, cell-based, Homo sapiens
# CONDITION_PARAMETERS: Homo sapiens, NB17
# Description: SANGER: Inhibition of human NB17 cell growth in a cell viability assay.
So I've got a bunch of compounds here, and I need their IC50 values.

Short answer for CCN(CC)CCNC(=O)c1c(C)[nH]c(/C=C2\C(=O)Nc3ccc(F)cc32)c1C : IC50 was > 8 µM

Query compound follows.
Looking up CO[C@H]1C[C@@H]2CC[C@@H](C)[C@@](O)(O2)C(=O)C(=O)N2CCCC[C@H]2C(=O)O[C@H]([C@H](C)C[C@@H]2CC[C@@H](OC(=O)C(C)(CO)CO)[C@H](OC)C2)CC(=O)[C@H](C)/C=C(\C)[C@@H](O)[C@@H](OC)C(=O)[C@H](C)C[C@H](C)/C=C/C=C/C=C/1C , I found its IC50 recorded as > 0.2 µM

----------
# System: G-402
# ASSAY_METHOD_TEXT: cells
# Assay type: functional, cell-based, Homo sapiens
# CONDITION_PARAMETERS: g-402
# Description: SANGER: Inhibition of human G-402 cell growth in a cell viability assay.
Please respond with reported IC50 for every item in the list.
Give bare numbers, in µM.

Query BLEOMYCIN on G-402; IC50 returned: 0.0765

Proceeding to the next sequence to report its IC50.
Lab entry: G-402 assay, sequence CISPLATIN , IC50 = 7.11

----------
Answer each item with its documented pIC50.
# Test system: MONO-MAC-6;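 note: cell viability assay measuring growth inhibition of human MONO-MAC-6 cells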
# ASSAY_METHOD_TEXT: cells
# Format: functional, cell-based, Homo sapiens
# CONDITION_PARAMETERS: Homo sapiens, MONO-MAC-6
# Description: SANGER: Inhibition of human MONO-MAC-6 cell growth in a cell viability assay.
Structures can show the parent of a compound that is named as a salt.
One number for each entry, as −log10 of the molar value.

Sample CCN(CC)CCNC(=O)c1c(C)[nH]c(/C=C2\C(=O)Nc3ccc(F)cc32)c1C , system: MONO-MAC-6. Its pIC50 is 7.47

Result for COC1=CC(c2cc3ccccc3[nH]2)=N/C1=C\c1[nH]c(C)cc1C [OBATOCLAX MESYLATE] , tested on MONO-MAC-6, pIC50: 6.36

Let's switch to this molecule now.
// molecule OCCCNc1cc(-c2ccnc(Nc3cccc(Cl)c3)n2)ccn1 , assay MONO-MAC-6, pIC50 value: 7.07
